B1: FCHO1 (parent)
chain: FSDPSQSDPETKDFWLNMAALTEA

- Variants of: B1
- Test: protein stability index of a GFP-peptide fusion (GPS, HEK-293T) (PSI 1-6); higher = more stable;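 further: lentivirally expressed fusions sorted by FACS into six bins by GFP to DsRed ratio, PSI derived from sequencing read proportions per bin multiplied by bin number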
- Conditions: c terminus: a fixed tail appended
# key: entry, value: protein stability index
Enter a number only.

Previously resolved entries follow.
L16K ... 2.36
N17V ... 1.88
E10G ... 2.03
F14L ... 3.69
T11M ... 2.31

// below: protein stability index requested for another variant
Determine from records and report protein stability index for D8I
2.9
